Entries annotated with measured EC50
system: dengue virus type 2; assay: Antiviral activity against DENV-2 infected in african green monkey Vero 76 cells assessed as virus titer reduction incubated for 48 hrs by plaque assay; format: functional, organism-based
readoutType: EC50

[
  {
    "compoundSmiles": "CC(C)(C)[C@H](NC(=O)[C@H](CCCNC(=N)N)NC(=O)Cc1ccc(CNC(=N)N)cc1)C(=O)N[C@@H](CCCNC(=N)N)C(=O)NCc1ccc(C(=N)N)cc1",
    "testValue": "760 nM"
  },
  {
    "compoundSmiles": "CC(C)(C)[C@H](NC(=O)[C@H](CCONC(=N)N)NC(=O)Cc1ccc(CNC(=N)N)cc1)C(=O)N[C@@H](CCONC(=N)N)C(=O)NCc1ccc(C(=N)N)cc1",
    "testValue": "1500 nM"
  }
]
